Target or system RNA polymerase II Serine 5 phosphorylation (CDK7) in A549 cells: recorded IC50 listed per item.

[
  {
    "Molecule": "CC#CC(=O)N1CC[C@](C)(N2CCC(c3cc(C)c4c(c3)Nc3ncnc(N5CCS(=O)(=O)CC5)c3[C@@H](C)O4)CC2)C1 (single isomer, unassigned) [compound 146]",
    "IC50": "< 2.45 nM"
  },
  {
    "Molecule": "[2H]C([2H])([2H])C#CC(=O)N1CC(C)(N2CCC(c3cc(C)c4c(c3)Nc3ncnc(N5CCS(=O)(=O)CC5)c3[C@@H](C)O4)CC2)C1 [compound 179]",
    "IC50": "~56.2 nM"
  },
  {
    "Molecule": "CC#CC(=O)N1CCN([C@H]2CC[C@H](c3cc(C)c4c(c3)Nc3ncnc(N5CCS(=O)(=O)CC5)c3[C@@H](C)O4)CC2)CC1 [compound 161]",
    "IC50": "< 9.77 nM"
  },
  {
    "Molecule": "C=CC(=O)N1CC(N2CCC(c3cc(C)c4c(c3)Nc3ncnc(N5CCS(=O)(=O)CC5)c3[C@H](C)O4)CC2)C1 [compound 32]",
    "IC50": "~12.6 nM"
  },
  {
    "Molecule": "Cc1cc(C2CCN(C3CN(C(=O)C#CCCN4CCOCC4)C3)CC2)cc2c1O[C@H](C)c1c(ncnc1N1CCS(=O)(=O)CC1)N2 [compound 175]",
    "IC50": "~26.3 nM"
  },
  {
    "Molecule": "C=CC(=O)N1CCC(N2CC[C@@H](c3cc(C)c4c(c3)Nc3ncnc(N5CCOCC5)c3CO4)C2)CC1 [compound 25]",
    "IC50": "741 nM"
  },
  {
    "Molecule": "C=CC(=O)N1CC(N2CCC(c3cc(F)c4c(c3)Nc3ncnc(-c5cnn(C)c5)c3[C@H](C)O4)CC2)C1 (single isomer, unassigned) [compound 53]",
    "IC50": "> 10000 nM"
  },
  {
    "Molecule": "C=CC(=O)N1CC(N2CCC(c3cc(C)c4c(c3)Nc3ncnc(N5CCC(S(C)(=O)=O)CC5)c3CO4)CC2)C1 [compound 70]",
    "IC50": "> 10000 nM"
  }
]
